Attribution: patent US20070232563A1

Listing of entries alongside the reported Judgment score of biological activity.
System: colbicula (Corbicula leana)
Test: Biological activity of corbicula (aqueduct extension score) in aqueous mineral solutions
Assay type: in vivo
Settings: mineral concentration 0; saccharide 1 w/v %; total of 18 shellfishes, 16 h
Just the number, please, no unit attached.

Sample answers from the record:
compound	Judgment score of biological activity
OC[C@H]1O[C@H](O[C@H]2O[C@H](CO)[C@@H](O[C@H]3O[C@H](CO)[C@@H](O[C@H]4O[C@H](CO)[C@@H](O)[C@H](O)[C@H]4O)[C@H](O)[C@H]3O)[C@H](O)[C@H]2O)[C@H](O)[C@@H](O)[C@@H]1O [α-Maltosyl α,α-trehalose, α-maltosyl α,α-trehalose]	54
OC[C@H]1O[C@@H]2OC[C@H]3O[C@H](O[C@@H]4[C@@H](O)[C@@H](OC[C@H]5O[C@H](O[C@H]([C@H]2O)[C@@H]1O)[C@H](O)[C@@H](O)[C@@H]5O)O[C@H](CO)[C@H]4O)[C@H](O)[C@@H](O)[C@@H]3O [Cyclic tetrasaccharide, cyclic tetrasaccharide]	51
O=C[C@H](O)[C@@H](O)[C@H](O)[C@H](O)CO [D-Glucose, D-glucose]	50
OC[C@H]1O[C@@](CO)(O[C@H]2O[C@H](CO)[C@@H](O)[C@H](O)[C@H]2O)[C@@H](O)[C@@H]1O [Sucrose, sucrose]	51

// next entry
Q: Which Judgment score of biological activity value is on record for OC[C@@H](O)[C@@H](O[C@H]1O[C@H](CO)[C@@H](O)[C@H](O)[C@H]1O)[C@H](O)[C@@H](O)CO [Maltitol, maltitol] ?
A: 50

---

Listing of entries alongside the reported Judgment score for biological activity.
Tested on: short-necked clam (Ruditapes philippinarum)
Experiment: Biological activity of short-necked clam (aqueduct extension score) in aqueous mineral solutions
Assay type: in vivo
Conditions: mineral 2.0 w/v %; saccharide 1 w/v %; total of 18 clams, 16 h
Method: Suitable region for biological activity of short-necked clam (Ruditapes philippinarum), as a fish or shellfish living in seawater, was examined by adding various saccharides to mineral aqueous solutions with various concentrations. In detail, solar salt (85% by weight of sodium chloride and 15% by weight of magnesium) as minerals was dissolved in running water kept in a container for two days to give final concentrations described in the following Table 1. […]

compound	Judgment score for biological activity
OC[C@@H](O)[C@@H](O[C@H]1O[C@H](CO)[C@@H](O)[C@H](O)[C@H]1O)[C@H](O)[C@@H](O)CO [Maltitol, maltitol]	30
O=C[C@H](O)[C@@H](O)[C@H](O)[C@H](O)CO [D-Glucose, D-glucose]	30
OC[C@H]1O[C@H](O[C@H]2[C@H](O)[C@@H](O)[C@@H](O[C@H]3[C@H](O)[C@@H](O)[C@@H](O[C@H]4[C@H](O)[C@@H](O)C(O)O[C@@H]4CO)O[C@@H]3CO)O[C@@H]2CO)[C@H](O)[C@@H](O)[C@@H]1O (some centres unmarked) [Maltotetraose, maltotetraose]	28
OC[C@H]1O[C@H](O[C@H]2O[C@H](CO)[C@@H](O)[C@H](O)[C@H]2O)[C@H](O)[C@@H](O)[C@@H]1O [α,α-Trehalose, α,α-trehalose]	47
OC[C@H]1O[C@@](CO)(O[C@H]2O[C@H](CO)[C@@H](O)[C@H](O)[C@H]2O)[C@@H](O)[C@@H]1O [Sucrose, sucrose]	31

Q: Which Judgment score for biological activity value is on record for OC[C@H]1O[C@H](O[C@H]2[C@H](O)[C@@H](O)C(O)O[C@@H]2CO)[C@H](O)[C@@H](O)[C@@H]1O (mixture of isomers) [Maltose, maltose] ?
A: 32

Q: Also check OC[C@H]1O[C@H](O[C@H]2O[C@H](CO)[C@@H](O[C@H]3O[C@H](CO)[C@@H](O[C@H]4O[C@H](CO)[C@@H](O)[C@H](O)[C@H]4O)[C@H](O)[C@H]3O)[C@H](O)[C@H]2O)[C@H](O)[C@@H](O)[C@@H]1O [α-Maltosyl α,α-trehalose, α-maltosyl α,α-trehalose]
A: 45

Q: Also check OC[C@H]1O[C@@H]2OC[C@H]3O[C@H](O[C@@H]4[C@@H](O)[C@@H](OC[C@H]5O[C@H](O[C@H]([C@H]2O)[C@@H]1O)[C@H](O)[C@@H](O)[C@@H]5O)O[C@H](CO)[C@H]4O)[C@H](O)[C@@H](O)[C@@H]3O [Cyclic tetrasaccharide, cyclic tetrasaccharide]
A: 30
